Target: Phosphatidylinositol 4,5-bisphosphate 3-kinase catalytic subunit alpha isoform (Homo sapiens)
Sequence (P42336 whole entry, canonical isoform): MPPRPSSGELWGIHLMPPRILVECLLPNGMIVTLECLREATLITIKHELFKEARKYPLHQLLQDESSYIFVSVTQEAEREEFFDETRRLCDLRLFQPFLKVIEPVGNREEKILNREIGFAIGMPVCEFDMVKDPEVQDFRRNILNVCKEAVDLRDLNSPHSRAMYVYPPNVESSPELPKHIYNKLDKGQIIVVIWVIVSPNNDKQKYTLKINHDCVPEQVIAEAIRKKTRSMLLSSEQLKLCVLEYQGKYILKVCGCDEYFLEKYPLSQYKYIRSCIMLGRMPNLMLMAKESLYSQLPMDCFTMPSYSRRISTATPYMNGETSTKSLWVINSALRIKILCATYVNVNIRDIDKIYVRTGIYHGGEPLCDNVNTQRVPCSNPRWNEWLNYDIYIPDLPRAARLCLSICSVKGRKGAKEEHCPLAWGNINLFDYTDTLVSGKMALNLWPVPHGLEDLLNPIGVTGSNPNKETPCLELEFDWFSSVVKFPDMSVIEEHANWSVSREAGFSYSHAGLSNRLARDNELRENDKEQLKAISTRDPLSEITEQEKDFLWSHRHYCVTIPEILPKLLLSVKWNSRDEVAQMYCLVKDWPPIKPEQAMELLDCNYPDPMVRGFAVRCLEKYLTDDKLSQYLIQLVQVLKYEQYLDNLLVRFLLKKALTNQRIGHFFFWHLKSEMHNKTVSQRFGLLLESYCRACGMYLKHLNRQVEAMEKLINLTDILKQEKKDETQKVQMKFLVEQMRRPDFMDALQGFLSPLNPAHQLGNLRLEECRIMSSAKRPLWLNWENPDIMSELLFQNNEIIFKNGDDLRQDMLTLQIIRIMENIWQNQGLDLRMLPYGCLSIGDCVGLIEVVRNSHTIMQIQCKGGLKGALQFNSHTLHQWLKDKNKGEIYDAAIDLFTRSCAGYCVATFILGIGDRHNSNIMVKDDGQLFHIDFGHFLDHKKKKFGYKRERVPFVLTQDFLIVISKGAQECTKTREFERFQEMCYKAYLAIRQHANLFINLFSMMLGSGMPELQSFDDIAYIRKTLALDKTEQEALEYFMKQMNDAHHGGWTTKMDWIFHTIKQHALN
Assay: Inhibition of N-terminal histidine6-tagged recombinant human full length PI3Kalpha expressed in baculovirus infected Sf21 insect cells preincubated for 15 mins followed by addition of cold ATP/gamma32P-ATP measured after 15 mins
recorded.endpoint: IC50 (µM)
Please state the figure in µM; there is no need to write the unit.

What does the data say about its IC50? Entry: `COc1ccc(-c2sc(NC(=O)C(C)(C)C)nc2C)cc1S(=O)(=O)Nc1ccc(O)cc1`
10

Further cases:
What does the data say about its IC50? Entry: `COc1ccc(-c2sc(NC(=O)C3CCCC3)nc2C)cc1S(=O)(=O)Nc1ccc(O)cc1`
2
